# Measurement protocol: Cytotoxicity against human HeLa cells assessed as cell survival at 1 uM after 24 hrs by MTT assay relative to control
# Assay type: cell-based
# Condition set: read-out: Survival
Measured metric: viability at 24 h, 1 µM (%)
Reply numerically in %, unit not repeated.

Exercise: Quick one: viability at 24 h, 1 µM for "COC(=O)[C@]1(C)CCC[C@]2(C)c3ccc(Nc4cccc5ccccc45)cc3CC[C@@H]12" ?
Solution: 97.3

---

# Measurement protocol: Solubility of the compound in water
# Format: physicochemical
Measured metric: solubility

Exercise: Quick one: solubility for "COC(=O)[C@]1(C)CCC[C@]2(C)c3ccc(Nc4cccc5ccccc45)cc3CC[C@@H]12" ?
Solution: > 15 µM

---

# Measurement protocol: Cytotoxicity against human SMMC7721 cells assessed as cell survival at 1 uM after 24 hrs by MTT assay relative to control
# Assay type: cell-based
# Condition set: SMMC-7721 cells, read-out: Survival
Measured metric: viability at 24 h, 1 µM (%)
Reply numerically in %, unit not repeated.

Exercise: Quick one: viability at 24 h, 1 µM for "COC(=O)[C@]1(C)CCC[C@]2(C)c3ccc(Nc4cccc5ccccc45)cc3CC[C@@H]12" ?
Solution: 96

---

# Measurement protocol: Cytotoxicity against human A549 cells assessed as cell survival at 1 uM after 24 hrs by MTT assay relative to control
# Assay type: cell-based
# Condition set: read-out: Survival
Measured metric: viability at 24 h, 1 µM (%)
Reply numerically in %, unit not repeated.

Exercise: Quick one: viability at 24 h, 1 µM for "COC(=O)[C@]1(C)CCC[C@]2(C)c3ccc(Nc4cccc5ccccc45)cc3CC[C@@H]12" ?
Solution: 93.1

Just for reference, ChEMBL document CHEMBL2346639 is where these values come from.
